# system.name: rHDAC1 (Homo sapiens, UniProt Q13547)
# Construct: FLAG; made in house
# Sequence (Q13547 whole entry): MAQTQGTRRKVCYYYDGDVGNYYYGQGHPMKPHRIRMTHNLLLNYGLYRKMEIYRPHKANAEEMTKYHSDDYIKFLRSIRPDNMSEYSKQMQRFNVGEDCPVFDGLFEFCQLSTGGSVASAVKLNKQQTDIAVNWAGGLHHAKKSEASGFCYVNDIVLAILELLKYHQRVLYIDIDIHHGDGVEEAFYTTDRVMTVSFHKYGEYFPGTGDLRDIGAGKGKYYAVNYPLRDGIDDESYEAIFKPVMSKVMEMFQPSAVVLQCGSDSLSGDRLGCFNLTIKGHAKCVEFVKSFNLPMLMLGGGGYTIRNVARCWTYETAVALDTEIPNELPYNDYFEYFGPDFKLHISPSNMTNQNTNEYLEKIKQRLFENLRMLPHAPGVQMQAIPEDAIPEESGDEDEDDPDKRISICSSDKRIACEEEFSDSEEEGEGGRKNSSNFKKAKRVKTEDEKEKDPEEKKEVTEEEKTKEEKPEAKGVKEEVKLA
# protocol.text: rHDAC1 enzymatic assay (recombinant FLAG-HDAC1)
# Type: biochemical
# experimental.context: FLAG-HDAC1 from HEK293; 6 μM Ac-NH-GGK(Ac)-AMC, 3 h at 30° C.; read-out: rHDAC1 [pIC50] (converted)
Where a name gives a salt, the structure may show the parent alone.
observed.property: IC50

O=C(NO)c1ccc2c(c1)CN(C(=O)Cc1c[nH]c3ccccc13)CC2 [Example 18] = 0.1 to 10 µM
O=C(NO)c1ccc2c(c1)CCN(C(=O)C1CCOC1)C2 (stereo not shown) [Example 13] = 10 to 100 µM
COc1ccc2[nH]c(C(=O)N3CCc4cc(C(=O)NO)ccc4C3)cc2c1 [Example 15] = 0.1 to 10 µM

Consider the additional molecule presented here.
(Q) IC50 for CN(C)CCCC(=O)N1CCc2cc(C(=O)NO)ccc2C1 [Example 9, hydrochloride] ?
(A) 0.1 to 10 µM

###

# protocol.text: Cellular cytotoxicity assay (Alamar Blue/Resazurin), A549
# Type: cell-based
# experimental.context: human, A549 cells; A549, 72 hours incubation, Resazurin; read-out: A549 Cytotoxicity [pIC50] (converted)
Counter-ions that a name gives are not always drawn.
Measured IC50 at 72 h accompanies every entry in the list below.

Solved entries (count: 8):
O=C(NO)c1ccc2c(c1)CCN(C(=O)C1CCC1)C2 = > 100 µM
O=C(NO)c1ccc2c(c1)CN(C(=O)Cc1ccccn1)CC2 [Example 21, hydrochloride] = > 100 µM
COCCCNC(=O)N1CCc2cc(C(=O)NO)ccc2C1 = > 100 µM
COc1ccc2[nH]c(C(=O)N3CCc4cc(C(=O)NO)ccc4C3)cc2c1 = 1 to 100 µM
O=C(NO)c1ccc2c(c1)CN(C(=O)Cc1c[nH]c3ccccc13)CC2 = 1 to 100 µM
O=C(NO)c1ccc2c(c1)CN(C(=O)C1CCOC1)CC2 (stereo not drawn) = > 100 µM
Cc1ccc(C(=O)N2CCc3ccc(C(=O)NO)cc3C2)cc1 = 1 to 100 µM
Cc1nccn1CC(=O)N1CCc2cc(C(=O)NO)ccc2C1 [Example 10, hydrochloride] = > 100 µM

Consider the additional molecule presented here.
(Q) IC50 at 72 h for CN(C)CCCC(=O)N1CCc2cc(C(=O)NO)ccc2C1 [Example 9, hydrochloride] ?
(A) 1 to 100 µM

###

Measured IC50 accompanies every entry in the list below.
# system.name: rHDAC1 (Homo sapiens, UniProt Q13547)
# Construct: FLAG; made in house
# protocol.text: rHDAC1 enzymatic assay (recombinant FLAG-HDAC1)
# Assay type: biochemical
# experimental.context: FLAG-HDAC1 from HEK293; 6 μM Ac-NH-GGK(Ac)-AMC, 3 h at 30° C.; read-out: rHDAC1 [pIC50] (converted)
Counter-ions that a name gives are not always drawn.

Solved entries (count: 8):
O=C(NO)c1ccc2c(c1)CCN(C(=O)Cc1ccccn1)C2 [Example 2, hydrochloride] = 10 to 100 µM
COCCOCC(=O)N1CCc2cc(C(=O)NO)ccc2C1 = 10 to 100 µM
CC#CC(=O)N1CCc2ccc(C(=O)NO)cc2C1 = 0.1 to 10 µM
O=C(NO)c1ccc2c(c1)CN(C(=O)Cc1cccnc1)CC2 [Example 19, hydrochloride] = 0.1 to 10 µM
O=C(NO)c1ccc2c(c1)CN(C(=O)NCCc1ccccc1)CC2 = 0.1 to 10 µM
Cc1ccc(C(=O)N2CCc3ccc(C(=O)NO)cc3C2)cc1 = 0.1 to 10 µM
O=C(NO)c1ccc2c(c1)CN(C(=O)Cc1ccccn1)CC2 [Example 21, hydrochloride] = 0.1 to 10 µM
O=C(NO)c1ccc2c(c1)CN(C(=O)C1CCOC1)CC2 (stereo not drawn) = 0.1 to 10 µM

(Q) IC50 for "CC(=O)N1CCc2cc(C(=O)NO)ccc2C1" ?
(A) 10 to 100 µM
